# Test system: Escherichia coli
# TEST_NAME: Antimicrobial activity against blaNDM-1-producing multidrug-resistant Escherichia coli SI-004 clinical isolate assessed as meropenem MIC at 32 ug/ml by broth microdilution method (reference value: 64 ug/ml)
QUANTITY_KIND: MIC

Past entries and their recorded results:
smiles_str=Cn1cncc1CN(Cc1c[nH]cn1)[C@@H](CCCn1c(-c2ccccc2)n[nH]c1=S)C(=O)O quantity_kind=MIC val="32 µg/mL"
smiles_str=O=C(O)[C@H](CCCn1c(Cc2ccccc2)n[nH]c1=S)N(Cc1c[nH]cn1)Cc1c[nH]cn1 quantity_kind=MIC val="0.06 µg/mL"
smiles_str=O=C(O)[C@H](CCCn1c(-c2ccccc2)n[nH]c1=S)N(Cc1cccnc1)Cc1c[nH]cn1 quantity_kind=MIC val="64 µg/mL"

Problem: GET /values?readout=MIC&system=Escherichia coli&item= Cc1[nH]cnc1CN(Cc1nc[nH]c1C)[C@@H](CCCn1c(-c2ccccc2)n[nH]c1=S)C(=O)O
Result: 2 µg/mL

###

# TEST_NAME: n-Octanol/PBS partition coefficient, logD of the compound at pH 7.4 after 2 hrs by LC-MS/MS analysis
# Format: physicochemical
QUANTITY_KIND: logD at 2 h

smiles_str=Cc1[nH]cnc1CN(Cc1c[nH]cn1)[C@@H](CCCn1c(-c2ccccc2)n[nH]c1=S)C(=O)O quantity_kind="logD at 2 h" val=-1.93
smiles_str=O=C(O)[C@H](CCn1c(-c2ccccc2)n[nH]c1=S)N(Cc1c[nH]cn1)Cc1c[nH]cn1 quantity_kind="logD at 2 h" val=-2.2
smiles_str=O=C(O)[C@H](CCCn1c(-c2ccc3ccccc3c2)n[nH]c1=S)N(Cc1c[nH]cn1)Cc1c[nH]cn1 quantity_kind="logD at 2 h" val=-0.823
smiles_str=O=C(O)[C@H](CCCn1c(-c2ccccc2)n[nH]c1=S)N(Cc1ccccn1)Cc1ccccn1 quantity_kind="logD at 2 h" val=0.243

Problem: Look up logD at 2 h: O=C(O)[C@H](CCCn1c(-c2ccccc2)n[nH]c1=S)N(Cc1c[nH]cn1)Cc1c[nH]cn1
Result: -2.12

###

// reported log10 of MIC for each item listed
# System: Escherichia coli
# TEST_NAME: Antimicrobial activity against blaNDM-1-producing multidrug-resistant Escherichia coli SI-004 clinical isolate assessed as meropenem MIC at 32 ug/ml by broth microdilution method (reference value: 64 ug/ml)
Each number you see is log10 of MIC, and the unit inside the log is mg/L.

Past entries and their recorded results:
smiles_str=O=C(O)[C@H](CCCn1c(-c2ccccc2)n[nH]c1=S)N(Cc1c[nH]cn1)Cc1cscn1 target_or_system="Escherichia coli" quantity_kind="log10 of MIC" val=0.60
smiles_str=O=C(O)[C@H](Cn1c(-c2ccccc2)n[nH]c1=S)N(Cc1c[nH]cn1)Cc1c[nH]cn1 target_or_system="Escherichia coli" quantity_kind="log10 of MIC" val=-1.22
smiles_str=O=C(O)[C@H](CCCn1c(-c2ccccc2)n[nH]c1=S)N(Cc1cscn1)Cc1cscn1 target_or_system="Escherichia coli" quantity_kind="log10 of MIC" val=1.51
smiles_str=O=C(O)[C@@H](CCCn1c(-c2ccccc2)n[nH]c1=S)N(Cc1c[nH]cn1)Cc1c[nH]cn1 target_or_system="Escherichia coli" quantity_kind="log10 of MIC" val=-1.22
smiles_str=O=C(O)[C@H](CCCn1c(-c2cccc(-c3ccccc3)c2)n[nH]c1=S)N(Cc1c[nH]cn1)Cc1c[nH]cn1 target_or_system="Escherichia coli" quantity_kind="log10 of MIC" val=-1.22

Problem: Look up log10 of MIC: O=C(O)[C@H](CCCn1c(-c2ccccc2)n[nH]c1=S)N(Cc1ccccc1)Cc1c[nH]cn1
Result: 1.51

Problem: Look up log10 of MIC: O=C(O)[C@H](CCCn1c(-c2ccc3ccccc3c2)n[nH]c1=S)N(Cc1c[nH]cn1)Cc1c[nH]cn1
Result: -1.22

Problem: Look up log10 of MIC: O=C(O)[C@H](CCCn1c(-c2ccccc2)n[nH]c1=S)N(Cc1cn[nH]c1)Cc1cn[nH]c1
Result: 1.81

###

// reported inhibition for each item listed
# System: Bacteria
# TEST_NAME: Inhibition of bacterial VIM-2 (unknown origin) expressed in Escherichia coli EXPRESS BL21(DE3) assessed as inhibition constant by measuring rate of substrate hydrolysis at 100 uM by UV-visible spectrophotometry relative to control

Past entries and their recorded results:
compound=O=C(O)[C@H](CCCn1c(-c2ccccc2)n[nH]c1=S)N(Cc1cn[nH]c1)Cc1c[nH]cn1 quantity_kind=inhibition val=53%
compound=O=C(O)[C@H](CCCn1c(-c2ccccc2)n[nH]c1=S)NCc1cncs1 quantity_kind=inhibition val=58%

Problem: Look up inhibition: O=C(O)[C@H](CCCn1c(-c2ccccc2)n[nH]c1=S)NCc1c[nH]cn1
Result: < 30%

###

# TEST_NAME: Metabolic stability in CD-1 mouse microsomes assessed as compound remaining after 40 mins LC-MS/MS analysis
# Assay type: ADME, Microsome
# CONDITION_SET: read-out: Activity
QUANTITY_KIND: remaining at 40 min (%)
Numbers only; they are read as %.

Past entries and their recorded results:
compound=O=C(O)[C@H](CCCn1c(-c2ccccc2)n[nH]c1=S)N(Cc1ccccn1)Cc1ccccn1 quantity_kind="remaining at 40 min" val=80.5
compound=O=C(O)[C@H](CCn1c(-c2ccccc2)n[nH]c1=S)N(Cc1c[nH]cn1)Cc1c[nH]cn1 quantity_kind="remaining at 40 min" val=91.2
compound="CC(C)NCC(O)COc1cccc2ccccc12 (centres undefined)" quantity_kind="remaining at 40 min" val=31

Consider the record given below.
Problem: Look up remaining at 40 min: Cc1[nH]cnc1CN(Cc1c[nH]cn1)[C@@H](CCCn1c(-c2ccccc2)n[nH]c1=S)C(=O)O
Result: 98.1

###

# TEST_NAME: Inhibition of bacterial Metallo-beta-lactamase VIM-2 (unknown origin)
# Design: species or system Bacteria
QUANTITY_KIND: pKi
Here pKi is given on a logarithmic scale as minus log10 of the concentration in mol/L.

compound=CC(C)(C)OC(=O)N[C@@H](CCCn1c(-c2ccccc2)n[nH]c1=S)C(=O)O quantity_kind=pKi val=5.71
compound=O=C(O)CCCCn1c(-c2ccccc2)n[nH]c1=S quantity_kind=pKi val=5.55

Consider the record given below.
Problem: Look up pKi: O=C(Nc1ccccc1)NC(CCCn1c(-c2ccccc2)n[nH]c1=S)C(=O)O (stereo not drawn)
Result: 5.16

###

# System: Escherichia coli
# TEST_NAME: Antimicrobial activity against blaNDM-1-producing multidrug-resistant Escherichia coli SI-004 clinical isolate assessed as meropenem MIC at 32 ug/ml by broth microdilution method (reference value: 64 ug/ml)
QUANTITY_KIND: MIC
Just the number plus its unit, please.

smiles_str=O=C(O)[C@H](CCCn1c(-c2ccccc2)n[nH]c1=S)NCc1c[nH]cn1 quantity_kind=MIC val="64 µg/mL"
smiles_str=O=C(O)[C@H](CCCn1c(-c2ccccc2)n[nH]c1=S)N(Cc1cncs1)Cc1cncs1 quantity_kind=MIC val="32 µg/mL"

Problem: Look up MIC: O=C(O)[C@H](CCCn1c(Cc2ccc3ccccc3c2)n[nH]c1=S)N(Cc1c[nH]cn1)Cc1c[nH]cn1
Result: 0.06 µg/mL

Problem: Look up MIC: O=C(O)[C@H](CCCCn1c(-c2ccccc2)n[nH]c1=S)N(Cc1c[nH]cn1)Cc1c[nH]cn1
Result: 0.06 µg/mL

Problem: Look up MIC: O=C(O)[C@H](CCCn1c(-c2ccccc2)n[nH]c1=S)N(Cc1ccccn1)Cc1c[nH]cn1
Result: 0.06 µg/mL

###

# TEST_NAME: Inhibition of bacterial VIM-1 (unknown origin) expressed in Escherichia coli EXPRESS BL21(DE3) assessed as inhibition constant by measuring rate of substrate hydrolysis by UV-visible spectrophotometry
# Parameters: species or system Bacteria
Labelling field: enter Yes if recorded Ki is less than 0.9 µM. Enter No if it equals or exceeds that cut-off.

For orientation, consider the following solved cases.
smiles_str=O=C(O)[C@H](CCCn1c(-c2ccccc2)n[nH]c1=S)N(Cc1cccnc1)Cc1cccnc1 qualitative_label=No
smiles_str=O=C(O)[C@H](CCCn1c(-c2ccccc2)n[nH]c1=S)N(Cc1ccccn1)Cc1c[nH]cn1 qualitative_label=No
smiles_str=O=C(O)[C@H](CCCCn1c(-c2ccccc2)n[nH]c1=S)N(Cc1c[nH]cn1)Cc1c[nH]cn1 qualitative_label=Yes
smiles_str=O=C(O)[C@H](CCCn1c(-c2ccccc2)n[nH]c1=S)N(Cc1c[nH]cn1)Cc1ncc[nH]1 qualitative_label=Yes
smiles_str=Cc1[nH]cnc1CN(Cc1nc[nH]c1C)[C@@H](CCCn1c(-c2ccccc2)n[nH]c1=S)C(=O)O qualitative_label=Yes
smiles_str=O=C(O)[C@H](CCn1c(-c2ccccc2)n[nH]c1=S)N(Cc1c[nH]cn1)Cc1c[nH]cn1 qualitative_label=Yes
smiles_str=O=C(O)[C@H](CCCn1c(-c2ccccc2)n[nH]c1=S)N(Cc1c[nH]cn1)Cc1cncs1 qualitative_label=No
smiles_str=O=C(O)[C@H](CCCn1c(-c2ccccc2)n[nH]c1=S)N(Cc1cnccn1)Cc1c[nH]cn1 qualitative_label=No

Problem: State whether 0.9 µM exceeds Ki recorded for O=C(O)[C@H](CCCn1c(-c2ccc3ccccc3c2)n[nH]c1=S)N(Cc1c[nH]cn1)Cc1c[nH]cn1 .
Result: Yes

Where do the numbers come from? From ChEMBL document CHEMBL5236609.
